For each record, write down the corresponding lambda max (Vis).
Assay: lambda max (Vis) of photochromic test square polymerizates, UV-Visible spectrophotometer
Format: physicochemical
Conditions: activated (colored) form in polymer test square (BPA 2EO DMA / poly(ethylene glycol) 600 dimethacrylate), 1.5×10^-3 molal
Kindly answer with a numeric value in nanometers, unit omitted.

Lookup result for O=C1OCOc2c1c1c(c3ccccc23)OC(c2ccccc2)(c2ccccc2)C=C1 ; measured lambda max (Vis): 472

Noted for C=C(C)C(=O)OCCn1c(=O)oc2c(c3c(c4ccccc42)OC(c2ccccc2)(c2ccccc2)C=C3)c1=O : its lambda max (Vis) reads 467

# lambda max (Vis) (compound: CCOC(=O)CCn1c(=O)oc2c(c3c(c4ccccc42)OC(c2ccccc2)(c2ccccc2)C=C3)c1=O ) is 468

get_value(item= CCCCCC1OC(=O)c2c3c(c4ccccc4c2O1)OC(c1ccccc1)(c1ccccc1)C=C3 (stereo not drawn) , readout=lambda max (Vis)) returns 478

Reported lambda max (Vis) of CC(c1ccccc1)C1OC(=O)c2c3c(c4ccccc4c2O1)OC(c1ccccc1)(c1ccccc1)C=C3 (stereo not drawn) : 475

GET /value?item= CCCCCC1OC(=O)c2c3c(c4ccccc4c2O1)OC(c1ccccc1)(c1ccc(OC)cc1)C=C3 (stereo not drawn) &field=lambda max (Vis) returns 496

Per the records, this compound ( CCC1OC(=O)c2c3c(c4ccccc4c2O1)OC(c1ccccc1)(c1ccccc1)C=C3 (stereo not drawn) ) has lambda max (Vis) equal to 474

The compound identified as CCCCCCn1c(=O)oc2c(c3c(c4ccccc42)OC(c2ccccc2)(c2ccccc2)C=C3)c1=O registered its lambda max (Vis) at 471

Per the records, this compound ( COc1ccc(C2(c3ccc(OC)cc3)C=Cc3c4c(c5ccccc5c3O2)OCOC4=O)cc1 ) has lambda max (Vis) equal to 510

Entry Cn1c(=O)oc2c(c3c(c4ccccc42)OC(c2ccccc2)(c2ccccc2)C=C3)c1=O , lambda max (Vis) reported as 469

Entry under test: O=C1OC(c2ccccc2)Oc2c1c1c(c3ccccc23)OC(c2ccccc2)(c2ccccc2)C=C1 (stereo not drawn) . Its lambda max (Vis) was 476

For reference, reported lambda max (Vis) for CC(C)CC1OC(=O)c2c3c(c4ccccc4c2O1)OC(c1ccccc1)(c1ccccc1)C=C3 (stereo not drawn) stands at 475

Values compiled from patent US6022497A.
